Each recorded value in this set is attributed to patent US20220040297A1.

# study-system: CD3ε homodimer protein (human, UniProt P07766 23-126, limits assumed)
# Sequence (P07766 23-126 limits assumed): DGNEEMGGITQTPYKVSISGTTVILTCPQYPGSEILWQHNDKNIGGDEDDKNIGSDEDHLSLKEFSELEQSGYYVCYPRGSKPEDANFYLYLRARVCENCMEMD
# test-protocol: SPR, immobilized CD3ε homodimer;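 further: biacore T200 surface plasmon resonance at 25 °C, antibody variants flowed as analytes over amine-coupled CD3ε homodimer on a CM4 chip, variant binding amount divided by that of GLS3000 antibody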
Parameter ratio of amounts bound (vs GLS3000): see the listing below.

{"binder": "GLS3000 Q93E (antibody, name in Kabat numbering, V domains shown, one-arm format as m2) VH: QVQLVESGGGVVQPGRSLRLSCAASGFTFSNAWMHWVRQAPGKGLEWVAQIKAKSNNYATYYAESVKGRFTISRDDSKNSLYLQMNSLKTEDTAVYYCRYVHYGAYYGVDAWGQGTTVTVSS VL: DIVMTQSPLSLPVTPGEPASISCRSSQSLVHSNRNTYLHWYQQKPGQAPRLLIYKVSNRFSGVPDRFSGSGSGTDFTLKISRVEAEDVGVYYCGQGTEVPYTFGQGTKLEIK", "ratio of amounts bound (vs GLS3000)": 0.75}
{"binder": "GLS3000 R45Q (antibody, name in Kabat numbering, V domains shown, one-arm format as m2) VH: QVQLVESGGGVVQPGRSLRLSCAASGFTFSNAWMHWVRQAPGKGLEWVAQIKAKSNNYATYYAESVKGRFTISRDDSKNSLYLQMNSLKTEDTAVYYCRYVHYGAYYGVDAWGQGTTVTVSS VL: DIVMTQSPLSLPVTPGEPASISCRSSQSLVHSNRNTYLHWYQQKPGQAPQLLIYKVSNRFSGVPDRFSGSGSGTDFTLKISRVEAEDVGVYYCGQGTQVPYTFGQGTKLEIK", "ratio of amounts bound (vs GLS3000)": 0.86}
{"binder": "GLS3000 R54W (antibody, name in Kabat numbering, V domains shown, one-arm format as m2) VH: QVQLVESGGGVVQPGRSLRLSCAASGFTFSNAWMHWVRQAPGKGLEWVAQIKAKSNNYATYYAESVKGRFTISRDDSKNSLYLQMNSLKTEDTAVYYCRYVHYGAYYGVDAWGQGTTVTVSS VL: DIVMTQSPLSLPVTPGEPASISCRSSQSLVHSNRNTYLHWYQQKPGQAPRLLIYKVSNWFSGVPDRFSGSGSGTDFTLKISRVEAEDVGVYYCGQGTQVPYTFGQGTKLEIK", "ratio of amounts bound (vs GLS3000)": 0.78}
